Data credit: the supplement of paper PMC11246515

Documented total protein half-life in vivo across a set of sequences
# protocolDescription: total protein half-life in vivo (active degradation + dilution); higher = more stable protein
# runConditions: E. coli NCM3722 delta-hslV; growth: N-lim chemostat; doubling time 6 h
assayMetric: total protein half-life in vivo (h)

sequenceText	u	number
MQKDALNNVHITDEQVLMTPEQLKAAFPLSLQQEAQIADSRKSISDIIAGRDPRLLVVCGPCSIHDPETALEYARRFKALAAEVSDSLYLVMRVYFEKPRTTVGWKGLINDPHMDGSFDVEAGLQIARKLLLELVNMGLPLATEALDPNSPQYLGDLFSWSAIGARTTESQTHREMASGLSMPVGFKNGTDGSLATAINAMRAAAQPHRFVGINQAGQVALLQTQGNPDGHVILRGGKAPNYSPADVAQCEKEMEQAGLRPSLMVDCSHGNSNKDYRRQPAVAESVVAQIKDGNRSIIGLMIESNIHEGNQSSEQPRSEMKYGVSVTDACISWEMTDALLREIHQDLNGQLTARVA	h	0.859
MSDISKASLPKAIFLMGPTASGKTALAIELRKILPVELISVDSALIYKGMDIGTAKPNAEELLAAPHRLLDIRDPSQAYSAADFRRDALAEMADITAAGRIPLLVGGTMLYFKALLEGLSPLPSADPEVRARIEQQAAEQGWESLHRQLQEVDPVAAARIHPNDPQRLSRALEVFFISGKTLTELTQTSGDALPYQVHQFAIAPASRELLHQRIEQRFHQMLASGFEAEVRALFARGDLHTDLPSIRCVGYRQMWSYLEGEISYDEMVYRGVCATRQLAKRQITWLRGWEGVHWLDSEKPEQARDEVLQVVGAIAG	h	5.26
MFKFLVLTLGIISCQAYAEDTVIVNDHDISAIKDCWQKNSDDDTDVNVIKSCLRQEYNLVDAQLNKAYGEAYRYIEQVPRTGVKKPDTEQLNLLKKSQRAWLDFRDKECELILSNEDVQDLSDPYSESEWLSCMIIQTNTRTRQLQLYRNSEDFYPSPLTRG	h	6.44

----------
# protocolDescription: total protein half-life in vivo (active degradation + dilution); higher = more stable protein
# runConditions: wild type E. coli NCM3722; growth: C-lim chemostat; doubling time 6 h

sequenceText	total protein half-life in vivo [h]
MIYIGLPQWSHPKWVRLGITSLEEYARHFNCVEGNTTLYALPKPEVVLRWREQTTDDFRFCFKFPATISHQAALRHCDDLVTEFLTRMSPLAPRIGQYWLQLPATFGPRELPALWHFLDSLPGEFNYGVEVRHPQFFAKGEEEQTLNRGLHQRGVNRVILDSRPVHAARPHSEAIRDAQRKKPKVPVHAVLTATNPLIRFIGSDDMTQNRELFQVWLQKLAQWHQTTTPYLFLHTPDIAQAPELVHTLWEDLRKTLPEIGAVPAIPQQSSLF	4.28
MFKKGLLALALVFSLPVFAAEHWIDVRVPEQYQQEHVQGAINIPLKEVKERIATAVPDKNDTVKVYCNAGRQSGQAKEILSEMGYTHVENAGGLKDIAMPKVKG	2.89
MTDLIQRPRRLRKSPALRAMFEETTLSLNDLVLPIFVEEEIDDYKAVEAMPGVMRIPEKHLAREIERIANAGIRSVMTFGISHHTDETGSDAWREDGLVARMSRICKQTVPEMIVMSDTCFCEYTSHGHCGVLCEHGVDNDATLENLGKQAVVAAAAGADFIAPSAAMDGQVQAIRQALDAAGFKDTAIMSYSTKFASSFYGPFREAAGSALKGDRKSYQMNPMNRREAIRESLLDEAQGADCLMVKPAGAYLDIVRELRERTELPIGAYQVSGEYAMIKFAALAGAIDEEKVVLESLGSIKRAGADLIFSYFALDLAEKKILR [P0ACB2]	5.43

----------
# protocolDescription: total protein half-life in vivo (active degradation + dilution); higher = more stable protein
# runConditions: E. coli NCM3722 delta-clpP; growth: N-lim chemostat; doubling time 6 h

sequenceText	total protein half-life in vivo / h
MIPFNAPPVVGTELDYMQSAMGSGKLCGDGGFTRRCQQWLEQRFGSAKVLLTPSCTASLEMAALLLDIQPGDEVIMPSYTFVSTANAFVLRGAKIVFVDVRPDTMNIDETLIEAAITDKTRVIVPVHYAGVACEMDTIMALAKKHNLFVVEDAAQGVMSTYKGRALGTIGHIGCFSFHETKNYTAGGEGGATLINDKALIERAEIIREKGTNRSQFFRGQVDKYTWRDIGSSYLMSDLQAAYLWAQLEAADRINQQRLALWQNYYDALAPLAKAGRIELPSIPDGCVQNAHMFYIKLRDIDDRSALINFLKEAEIMAVFHYIPLHGCPAGEHFGEFHGEDRYTTKESERLLRLPLFYNLSPVNQRTVIATLLNYFS	4.4
MKALSKLKAEEGIWMTDVPVPELGHNDLLIKIRKTAICGTDVHIYNWDEWSQKTIPVPMVVGHEYVGEVVGIGQEVKGFKIGDRVSGEGHITCGHCRNCRGGRTHLCRNTIGVGVNRPGCFAEYLVIPAFNAFKIPDNISDDLAAIFDPFGNAVHTALSFDLVGEDVLVSGAGPIGIMAAAVAKHVGARNVVITDVNEYRLELARKMGITRAVNVAKENLNDVMAELGMTEGFDVGLEMSGAPPAFRTMLDTMNHGGRIAMLGIPPSDMSIDWTKVIFKGLFIKGIYGREMFETWYKMAALIQSGLDLSPIITHRFSIDDFQKGFDAMRSGQSGKVILSWD	5

----------
Parameter total protein half-life in vivo: see the listing below.
# protocolDescription: total protein half-life in vivo (active degradation + dilution); higher = more stable protein
# runConditions: E. coli NCM3722 delta-hslV; growth: N-lim chemostat; doubling time 6 h

sequenceText	total protein half-life in vivo (h)
MRYRIFLLFFFALLPTSLVWAAPAQRAFSDWQVTCNNQNFCVARNTGDHNGLVMTLSRSAGAHTDAVLRIERGGLKSPEASEGEIAPRLLLDGEPLALSGDKWRISPWLLVTDDTATITAFLQMIQEGKAITLRDGDQTISLSGLKAALLFIDAQQKRVGSETAWIKKGDEPPLSVPPAPALKEVAVVNPTPTPLSLEERNDLLDYGNWRMNGLRCSLDPLRREVNVTALTDDKALMMISCEAGAYNTIDLAWIVSRKKPLASRPVRLRLPFNNGQETNELELMNATFDEKSRELVTLAKGRGLSDCGIQARWRFDGQRFRLVRYAAEPTCDNWHGPDAWPTLWITR	6.05
MQDRNFDDIAEKFSRNIYGTTKGQLRQAILWQDLDRVLAEMGPQKLRVLDAGGGEGQTAIKMAERGHQVILCDLSAQMIDRAKQAAEAKGVSDNMQFIHCAAQDVASHLETPVDLILFHAVLEWVADPRSVLQTLWSVLRPGGVLSLMFYNAHGLLMHNMVAGNFDYVQAGMPKKKKRTLSPDYPRDPAQVYLWLEEAGWQIMGKTGVRVFHDYLREKHQQRDCYEALLELETRYCRQEPYITLGRYIHVTARKPQSKDKV	3.95
MYQVVASDLDGTLLSPDHTLSPYAKETLKLLTARGINFVFATGRHHVDVGQIRDNLEIKSYMITSNGARVHDLDGNLIFAHNLDRDIASDLFGVVNDNPDIITNVYRDDEWFMNRHRPEEMRFFKEAVFQYALYEPGLLEPEGVSKVFFTCDSHEQLLPLEQAINARWGDRVNVSFSTLTCLEVMAGGVSKGHALEAVAKKLGYSLKDCIAFGDGMNDAEMLSMAGKGCIMGSAHQRLKDLHPELEVIGTNADDAVPHYLRKLYLS	3.53
MAKLTLQEQLLKAGLVTSKKAAKVERTAKKSRVQAREARAAVEENKKAQLERDKQLSEQQKQAALAKEYKAQVKQLIEMNRITIANGDIGFNFTDGNLIKKIFVDKLTQAQLINGRLAIARLLVDNNSEGEYAIIPASVADKIAQRDASSIVLHSALSAEEQDEDDPYADFKVPDDLMW	2.22
MSTTNHDHHIYVLMGVSGSGKSAVASEVAHQLHAAFLDGDFLHPRRNIEKMASGEPLNDDDRKPWLQALNDAAFAMQRTNKVSLIVCSALKKHYRDLLREGNPNLSFIYLKGDFDVIESRLKARKGHFFKTQMLVTQFETLQEPGADETDVLVVDIDQPLEGVVASTIEVIKKGK	4.01
MKYKHLILSLSLIMLGPLAHAEEIGSVDTVFKMIGPDHKIVVEAFDDPDVKNVTCYVSRAKTGGIKGGLGLAEDTSDAAISCQQVGPIELSDRIKNGKAQGEVVFKKRTSLVFKSLQVVRFYDAKRNALAYLAYSDKVVEGSPKNAISAVPVMPWRQ [P0AE91]	6.57

----------
# protocolDescription: total protein half-life in vivo (active degradation + dilution); higher = more stable protein
# runConditions: E. coli NCM3722 delta-hslV; growth: N-lim chemostat; doubling time 6 h

sequenceText	total protein half-life in vivo (h)
MVKTQRVVITPGEPAGIGPDLVVQLAQREWPVELVVCADATLLTNRAAMLGLPLTLRPYSPNSPAQPQTAGTLTLLPVALRAPVTAGQLAVENGHYVVETLARACDGCLNGEFAALITGPVHKGVINDAGIPFTGHTEFFEERSQAKKVVMMLATEELRVALATTHLPLRDIADAITPALLHEVIAILHHDLRTKFGIAEPRILVCGLNPHAGEGGHMGTEEIDTIIPVLNELRAQGMKLNGPLPADTLFQPKYLDNADAVLAMYHDQGLPVLKYQGFGRGVNITLGLPFIRTSVDHGTALELAGRGKADVGSFITALNLAIKMIVNTQ	3.58
